# TARGET: Bromodomain-containing protein 4 (Homo sapiens)
# APPLIED CONDITIONS: Compound concentration 20.0 uM, Protein concentration 2.0 uM, Result type QC Liability
OBSERVABLE: ΔTm

MOLECULE: CNC(=O)COc1cc2cc(Nc3nc(N4C[C@H](C)C[C@H](C)C4)ncc3Cl)ccc2n(C)c1=O
READOUT VALUE: -0.33 °C

MOLECULE: Cc1cc2nc(N3CCC(C(=O)NC4CCCC4)CC3)n(C(C)C)c2cc1C
READOUT VALUE: -0.57 °C

MOLECULE: CCCCOc1c(C(=O)c2c(F)cc(C)cc2F)c[nH]c2nncc1-2
READOUT VALUE: -0.5 °C

MOLECULE: CN(C)[C@H]1CC[C@H](Nc2ncc3ncnc(Nc4ccc(F)c(Cl)c4)c3n2)CC1
READOUT VALUE: -0.7 °C
